system: ABC-1; test: relative viability (nuclei count vs DMSO), 5 days (fraction); higher = more cells survive; conditions: first compound 0.01 µM
Parameter: relative viability. Scope: all listed entries.
Please reply with the number alone, leaving off any unit.

Below, 3 molecules whose answers are already recorded.
molecule	relative viability
CC(C)Oc1cc(Nc2nc(N[C@@H](C)c3ccc(F)cn3)ncc2Cl)n[nH]1 [AZ23] + Cc1nc(Nc2ncc(C(=O)Nc3c(C)cccc3Cl)s2)cc(N2CCN(CCO)CC2)n1 [Dasatinib] (partner 0.075 µM)	0.583
CC(C)Oc1cc(Nc2nc(N[C@@H](C)c3ccc(F)cn3)ncc2Cl)n[nH]1 [AZ23] + Cc1cc(Nc2cc(N3CCN(C)CC3)nc(Sc3ccc(NC(=O)C4CC4)cc3)n2)n[nH]1 [Tozasertib] (partner 0.1 µM)	0.192
CC(C)Oc1cc(Nc2nc(N[C@@H](C)c3ccc(F)cn3)ncc2Cl)n[nH]1 [AZ23] + CC(C)C[C@H](NC(=O)[C@H](Cc1ccccc1)NC(=O)c1cnccn1)B(O)O [Bortezomib] (partner 0.002 µM)	0.29

With those in mind, consider the next molecule.
Challenge: Lab request: please report relative viability under test system ABC-1 for CC(C)Oc1cc(Nc2nc(N[C@@H](C)c3ccc(F)cn3)ncc2Cl)n[nH]1 [AZ23] + O=C(c1cc(Cc2n[nH]c(=O)c3ccccc23)ccc1F)N1CCN(C(=O)C2CC2)CC1 [Olaparib] (partner 8 µM)
Response given: 0.971
